Documented kon across a set of binders
Molecular target: T1, human ACTH 18-39 (human)
T1 construct: also called CLIP; CLIP (ACTH 18-39)
T1 peptide: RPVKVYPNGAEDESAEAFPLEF
Test: SPR ProteOn, antibody immobilised
Write down the numeric answer in M⁻¹ s⁻¹ and omit the unit.

Record excerpt, results attached:
>>> measured_value("Ab2 (antibody, human IgG1, kappa, N297A, V domains shown, rabbit/human chimeric antibody, made in HEK-293) VH: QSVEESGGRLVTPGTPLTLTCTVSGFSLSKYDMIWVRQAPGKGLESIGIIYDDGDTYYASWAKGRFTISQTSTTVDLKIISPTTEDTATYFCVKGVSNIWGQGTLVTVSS VL: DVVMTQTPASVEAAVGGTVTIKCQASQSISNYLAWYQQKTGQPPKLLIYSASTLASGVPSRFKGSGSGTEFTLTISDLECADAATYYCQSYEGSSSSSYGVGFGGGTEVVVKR")
840000
>>> measured_value("Ab4 (antibody, human IgG1, kappa, N297A, V domains shown, rabbit/human chimeric antibody, made in HEK-293) VH: QSVEESGGRLVTPGTPLTLTYTVSGFSLSKHDMIWVRQAPGKGLESIGIIYDDGDTYYANWAKGRFTISKTSTTVDLKIISPTTEDTATYFCVKGVSNIWGPGTLVTVSS VL: DVVMTQTPASVEAAVGGTVTIKCRASQSISVYLAWYQQKAGQPPKLLIYQASKLASGVPSRFKGSGSGTEFTLTISDLECADAATYYCQSYDGSSSSSYGVGFGGGTEVVVKR")
710000
>>> measured_value("Ab3 (antibody, human IgG1, kappa, N297A, V domains shown, rabbit/human chimeric antibody, made in HEK-293) VH: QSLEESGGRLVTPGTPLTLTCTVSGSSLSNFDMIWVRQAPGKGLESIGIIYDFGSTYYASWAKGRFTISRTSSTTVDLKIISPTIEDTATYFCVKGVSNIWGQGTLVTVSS VL: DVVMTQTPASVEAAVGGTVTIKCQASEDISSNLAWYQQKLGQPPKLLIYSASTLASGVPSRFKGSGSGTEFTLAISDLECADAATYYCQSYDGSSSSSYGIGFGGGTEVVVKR")
340000

Lab note: next binder to report on.
IN: Could you tell me which kon is on file for Ab1 (antibody, human IgG1, kappa, N297A, V domains shown, rabbit/human chimeric antibody, made in HEK-293) VH: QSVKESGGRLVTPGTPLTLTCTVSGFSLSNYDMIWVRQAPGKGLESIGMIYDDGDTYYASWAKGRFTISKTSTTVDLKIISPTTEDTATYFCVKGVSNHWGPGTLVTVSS VL: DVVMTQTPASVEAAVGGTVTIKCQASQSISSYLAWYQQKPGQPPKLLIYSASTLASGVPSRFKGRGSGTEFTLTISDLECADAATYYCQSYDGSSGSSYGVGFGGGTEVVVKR ?
OUT: 620000
